Taken from patent US20110118447A1.

- Assayed Target: binding partner of C5A (XPA23)
- Run Description: Biacore
For each of the binders below, state its fold difference in affinity vs original.
Please give the number followed by its unit.

C5A (XPA23) VH S54G (antibody, V domains shown) VH: EVQLLESGGGLVQPGGSLRLSCAASGFTFSKYFMFWVRQAPGKGLEWVSVISPGGGMTRYADSVKGRFTISRDNSKNTLYLQMNSLRAEDTAVYYCARVGYGGNSDYWGQGTLVTVSS VL: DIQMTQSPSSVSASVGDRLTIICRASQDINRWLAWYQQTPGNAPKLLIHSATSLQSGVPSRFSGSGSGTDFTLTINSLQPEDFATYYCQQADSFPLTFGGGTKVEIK; 1.43 fold

Next binder, fold difference in affinity vs original to be filled in.
Reported fold difference in affinity vs original of C5A (XPA23) VH F35L (antibody, V domains shown) VH: EVQLLESGGGLVQPGGSLRLSCAASGFTFSKYFMLWVRQAPGKGLEWVSVISPSGGMTRYADSVKGRFTISRDNSKNTLYLQMNSLRAEDTAVYYCARVGYGGNSDYWGQGTLVTVSS VL: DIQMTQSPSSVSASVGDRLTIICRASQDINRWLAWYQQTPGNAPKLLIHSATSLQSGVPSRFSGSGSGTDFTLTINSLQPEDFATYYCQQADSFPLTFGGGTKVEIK : 0.78 fold
